Entries and their DC50
# systemTested: Helios (Homo sapiens, UniProt Q96SW2+Q9UKS7)
# Construct: fluorescently labelled antibodies against Helios and Ikaros; endogenous in cells; host or cells: Jurkat cells
# Sequence (Q9UKS7 whole entry): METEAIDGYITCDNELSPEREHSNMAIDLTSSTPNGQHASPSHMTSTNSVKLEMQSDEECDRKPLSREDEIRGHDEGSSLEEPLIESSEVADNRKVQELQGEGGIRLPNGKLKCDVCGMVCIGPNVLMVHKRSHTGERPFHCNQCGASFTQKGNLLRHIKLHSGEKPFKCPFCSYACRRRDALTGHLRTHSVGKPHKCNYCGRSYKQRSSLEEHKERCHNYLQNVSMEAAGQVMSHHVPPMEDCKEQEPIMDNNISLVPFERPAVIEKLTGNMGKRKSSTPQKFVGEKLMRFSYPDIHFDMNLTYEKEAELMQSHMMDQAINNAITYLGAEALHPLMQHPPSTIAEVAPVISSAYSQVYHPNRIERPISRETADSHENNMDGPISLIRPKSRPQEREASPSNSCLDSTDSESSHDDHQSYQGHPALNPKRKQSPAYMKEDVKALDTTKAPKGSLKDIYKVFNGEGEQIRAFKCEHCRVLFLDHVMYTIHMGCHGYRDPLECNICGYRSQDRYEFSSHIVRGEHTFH
# Sequence (Q96SW2 whole entry): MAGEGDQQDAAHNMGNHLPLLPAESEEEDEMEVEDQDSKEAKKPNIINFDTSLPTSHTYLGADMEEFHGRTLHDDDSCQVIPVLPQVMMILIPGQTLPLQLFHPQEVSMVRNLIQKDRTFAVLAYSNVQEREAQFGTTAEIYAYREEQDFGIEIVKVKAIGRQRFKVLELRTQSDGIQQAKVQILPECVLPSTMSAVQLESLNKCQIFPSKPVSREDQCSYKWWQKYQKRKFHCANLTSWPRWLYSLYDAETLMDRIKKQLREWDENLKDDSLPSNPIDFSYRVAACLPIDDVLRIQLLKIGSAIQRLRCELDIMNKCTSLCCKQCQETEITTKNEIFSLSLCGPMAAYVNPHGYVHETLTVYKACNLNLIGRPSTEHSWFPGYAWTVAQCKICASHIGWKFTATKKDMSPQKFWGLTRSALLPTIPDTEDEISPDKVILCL
# Sequence (Q16531 whole entry partner): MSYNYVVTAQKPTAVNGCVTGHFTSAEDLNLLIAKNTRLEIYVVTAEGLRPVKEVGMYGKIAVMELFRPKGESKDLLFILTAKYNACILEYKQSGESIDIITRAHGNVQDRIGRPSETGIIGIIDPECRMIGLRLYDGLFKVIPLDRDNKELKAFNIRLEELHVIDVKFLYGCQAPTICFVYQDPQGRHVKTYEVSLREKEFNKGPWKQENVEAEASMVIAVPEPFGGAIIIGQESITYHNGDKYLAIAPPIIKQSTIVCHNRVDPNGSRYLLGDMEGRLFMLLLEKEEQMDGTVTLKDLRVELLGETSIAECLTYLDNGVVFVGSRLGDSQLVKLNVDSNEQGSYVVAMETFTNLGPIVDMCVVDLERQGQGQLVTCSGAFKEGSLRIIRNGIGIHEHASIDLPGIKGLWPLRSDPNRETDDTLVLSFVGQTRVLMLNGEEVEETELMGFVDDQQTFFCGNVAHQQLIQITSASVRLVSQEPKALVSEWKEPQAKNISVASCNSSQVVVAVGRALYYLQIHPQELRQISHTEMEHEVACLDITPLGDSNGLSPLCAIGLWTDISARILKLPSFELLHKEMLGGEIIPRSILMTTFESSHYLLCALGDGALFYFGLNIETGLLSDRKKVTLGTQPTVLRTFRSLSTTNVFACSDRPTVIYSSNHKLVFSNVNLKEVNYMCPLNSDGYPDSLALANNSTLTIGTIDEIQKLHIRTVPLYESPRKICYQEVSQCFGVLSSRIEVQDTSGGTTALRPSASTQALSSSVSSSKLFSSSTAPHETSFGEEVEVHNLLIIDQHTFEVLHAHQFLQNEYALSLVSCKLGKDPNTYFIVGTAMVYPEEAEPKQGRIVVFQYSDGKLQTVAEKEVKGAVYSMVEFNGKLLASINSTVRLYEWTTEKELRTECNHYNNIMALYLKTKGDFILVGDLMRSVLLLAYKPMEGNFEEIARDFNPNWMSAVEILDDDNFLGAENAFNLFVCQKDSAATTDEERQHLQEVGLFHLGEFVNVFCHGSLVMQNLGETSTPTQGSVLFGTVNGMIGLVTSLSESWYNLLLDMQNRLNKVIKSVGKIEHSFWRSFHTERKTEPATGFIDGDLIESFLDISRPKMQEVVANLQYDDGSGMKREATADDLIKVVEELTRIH
# testProtocol: Helios Cellular Degradation Assay (flow cytometry, Helios-PE antibody staining, 72 h)
# Type: cell-based
# protocolConditions: Jurkat cells, 72 h incubation, flow cytometry

{"molecule": "O=C1CCC(N2Cc3cc(-c4cc(CN5CCC(N6CCCCC6)CC5)ccn4)ccc3C2=O)C(=O)N1 (stereo not shown)", "systemTested": "Helios (Homo sapiens, UniProt Q96SW2+Q9UKS7)", "DC50": "> 10 µM"}
{"molecule": "CN1CCC(N(C)Cc2ccnc(-c3ccc4c(c3)CN(C3CCC(=O)NC3=O)C4=O)c2)C1 (stereo not shown) [Example 49]", "systemTested": "Helios (Homo sapiens, UniProt Q96SW2+Q9UKS7)", "DC50": "> 10 µM"}
{"molecule": "CC1(C)CCCN(Cc2ccnc(-c3ccc4c(c3)CN(C3CCC(=O)NC3=O)C4=O)c2)C1 (stereo not shown)", "systemTested": "Helios (Homo sapiens, UniProt Q96SW2+Q9UKS7)", "DC50": "> 10 µM"}
{"molecule": "CC(C)CN(C)Cc1ccnc(-c2ccc3c(c2)CN(C2CCC(=O)NC2=O)C3=O)c1 (stereo not shown)", "systemTested": "Helios (Homo sapiens, UniProt Q96SW2+Q9UKS7)", "DC50": "0.212 µM"}
